experimental target: T1, Cynomolgus macaques TSLP recombinant protein (Cynomolgus macaques, UniProt Q969D9 29-159 (human entry), limits assumed, biotinylated in the blocking assays (sites not given))
T1 construct: also called cyTSLP; biotinylated Cynomolgus macaques TSLP protein
T1 chain: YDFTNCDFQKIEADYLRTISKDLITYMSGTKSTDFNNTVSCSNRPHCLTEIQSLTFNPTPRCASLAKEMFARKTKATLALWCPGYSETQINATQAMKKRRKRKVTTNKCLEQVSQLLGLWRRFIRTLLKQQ
assay summary: ELISA on coated cynomolgus TSLP
# pEC50 values compiled below
// scale note: pEC50 = -log10(conc_M); give the bare number

A selection of reference data follows.
binder	measured property	measured result
80D12 chimeric antibody (antibody, V domains shown) VH: QVQLKQSGPQLVRPGASVKISCKASGYSFTSYWMHWVKQRPGQGLEWIGMIDPSDSETTLNQKFKDKATLTVDKSSTTAYMQLSSPTSEDSAVYYCARSLDGYYDYWGQGTTLTVSS VL: DVQMIQSPASLSASVGETVTITCRTSENIYSYLAWYQQKQGKSPQLLVYFAKTLTDGVPSRFSGSGSGTQFSLKINSLQPEDFGSYYCQHHYGTPWTFGGGTKLEIK	pEC50	9.46
39G5-H8 chimeric antibody (antibody, V domains shown) VH: QVQLLQSGPQLVRPGASVKISCKASGYSFISYWIHWVKQRPGQGLEWIGIIDPSDSDTSLNQKFKDKATLTVDKSSTTAYIQLSSPTSEDSAVYYCARSLDGYYDYWGQGTTLTVSS VL: DIQMTQSPASLSASVGETVTITCRASENIYSYLAWYQQKQGKSPQLLVYNARTLPEGVPSRFSGSGSGTQFSLKINSLQPEDFGIYYCQHHYTTPWTFGGGTKLEIK	pEC50	9.27
79D6 chimeric antibody (antibody, V domains shown) VH: QVQLQQSGAELVMPGASVKMSCKASGYTFTGYWMHWVKQRPGQGLEWIGTIDNSDSDTTYNQKFKGKVTLTVDESSSTAYMQLSSLTSEDSAVYYCARSVDGYLDYWGQGTTLTVSS VL: DIQMIQSPASLSASVGETVTITCRASENIYSYLAWYQQIQGKSPQLLVYYAKTLPEGVPSRFSGSGSGTQFSLKINSLQPEDFGSYYCQHHYGTPWTFGGGTKLEIK	pEC50	9.14

Hello, please tell me recorded pEC50 for this one: 71G4 chimeric antibody (antibody, V domains shown) VH: QVQLQQSGAELVMPGASVKMSCKASGYTFTDYWMHWVKQRPGQGLEWIGTIDNSDSDTTYNQKFKGKVTLTVDESSSTAYMQLSSLTSEDSAVYYCARSVDGYLDYWGQGTTLTVSS VL: EIQMTQSPASLSASVGETVTITCRTSENIYSYLAWYQQKQGKSPQLLVYFAKTLTDGVPSRLSGSGSGTQFSLKINSLQPEDFGSYYCQHHYGTPWTFGGGTKLEIK
9.22

Write down pEC50 measured for item 80E11 chimeric antibody (antibody, V domains shown) VH: QVQLQQSGPQLVRPGASVKISCKASGYSFTSYWMHWVKQRPGQGLEWIGVIDPSDSETILNQKFKDKATLTVDKSSSTAYMQFSSPTSEDSAVYYCARSLDGYYDYWGQGTTLTVSS VL: DIQMTQSPASLSASVGETVTITCRAGENIYSYLAWYQQKQGKSPQLLVYNAKTLAEGVPSRFSGSASGTQFSLKINSLQPEDFGSYYCQHFWGTPWAFGGGTRLEIK
9.24

Indicate the recorded pEC50 value for this binder: 80B12 chimeric antibody (antibody, V domains shown) VH: QVQLQQSGPQLVRPGASVKISCKASGYSFTTYWMHWVKQRPGQGLEWIGLIDPSDGEAGLNQNFKDKATLTVDISSRTAYMQISSPTSEDSAVYFCARSLDGYYDYWGQGTTLTVSS VL: DIQMTQSPASLSASVGETVTITCRASEDIYSYLAWYQQKQGKSPQLLVYNAKTLAEGVPSRFSGSGSGTQFSLKINSLQPEDFGSYYCQHFWSTPWTFGGGTKLELK
9.26

Determine its reported pEC50: 76A8 chimeric antibody (antibody, V domains shown) VH: QVQLQQSGPQLVRPGASVKISCKASGYSFTSYWMHWVKQRPGQGLEWIGLIDPSDSETGLNQRFKDKATLTVDNPSSTAYMQLSSPTSEDSAVYYCARSLDGYYDYWGQGTTLTVSS VL: DIQMIQSPASLSASVGETVTITCRASGNIHNYLAWYQQKQGKSPQLLVYNAKTLADGVPSRFSGSGSGTQYSLKINSLQPEDFGSYYCQHFWSTPWTFGGGTRLEIK
9.33

All values here come from patent US20230029835A1.
